These measurements were taken from ChEMBL document CHEMBL1944570.

# Tested on: Streptococcus pneumoniae
# assay-remarks: Antibacterial activity against constitutive MLS resistant Streptococcus pneumoniae by agar microdilution method
# Type: functional
// returns FALSE unless MIC is strictly below 2 µg/mL, in which case TRUE

{"compound": "CC[C@H]1OC(=O)[C@H](C)[C@@H](O[C@H]2C[C@@](C)(OC)[C@@H](OCCN3CCN(c4ccc5c(c4)c(=O)c(C(=O)O)cn5CC)CC3)[C@H](C)O2)[C@H](C)[C@@H](O[C@@H]2O[C@H](C)C[C@H](N(C)C)[C@H]2O)[C@](C)(O)C[C@@H](C)CN(C)[C@H](C)[C@@H](O)[C@]1(C)O", "cat": "FALSE"}
{"compound": "CC[C@H]1OC(=O)[C@H](C)[C@@H](O[C@H]2C[C@@](C)(OC)[C@@H](OCCNCCNc3cc4c(cc3F)c(=O)c(C(=O)O)cn4C3CC3)[C@H](C)O2)[C@H](C)[C@@H](O[C@@H]2O[C@H](C)C[C@H](N(C)C)[C@H]2O)[C@](C)(O)C[C@@H](C)CN(C)[C@H](C)[C@@H](O)[C@]1(C)O", "cat": "FALSE"}
{"compound": "CC[C@H]1OC(=O)[C@H](C)[C@@H](O[C@H]2C[C@@](C)(OC)[C@@H](OCCCC(=O)NCCNc3cc4c(=O)c(C(=O)O)cn(C5CC5)c4cc3Cl)[C@H](C)O2)[C@H](C)[C@@H](O[C@@H]2O[C@H](C)C[C@H](N(C)C)[C@H]2O)[C@](C)(O)C[C@@H](C)CN(C)[C@H](C)[C@@H](O)[C@]1(C)O", "cat": "TRUE"}
{"compound": "O=C(O)c1cn(C2CC2)c2cc(N3CCNCC3)c(F)cc2c1=O [CIPROFLOXACIN]", "cat": "TRUE"}
{"compound": "CC[C@H]1OC(=O)[C@H](C)[C@@H](O[C@H]2C[C@@](C)(OC)[C@@H](OCCNCCNc3cc4c(cc3F)c(=O)c(C(=O)O)cn4C3CC3)[C@H](C)O2)[C@H](C)[C@@H](O[C@@H]2O[C@H](C)C[C@H](N(C)C)[C@H]2O)[C@](C)(O)C[C@@H](C)CN(C)[C@H](C)[C@H]2OC(=O)O[C@@]21C", "cat": "FALSE"}
{"compound": "CC[C@H]1OC(=O)[C@H](C)[C@@H](O[C@H]2C[C@@](C)(OC)[C@@H](OCCNCCOCCNc3cc4c(=O)c(C(=O)O)cn(C5CC5)c4cc3Cl)[C@H](C)O2)[C@H](C)[C@@H](O[C@@H]2O[C@H](C)C[C@H](N(C)C)[C@H]2O)[C@](C)(O)C[C@@H](C)CN(C)[C@H](C)[C@@H](O)[C@]1(C)O", "cat": "TRUE"}
{"compound": "CC[C@H]1OC(=O)[C@H](C)[C@@H](O[C@H]2C[C@@](C)(OC)[C@@H](OCCCC(=O)NCCOCCNc3cc4c(cc3F)c(=O)c(C(=O)O)cn4C3CC3)[C@H](C)O2)[C@H](C)[C@@H](O[C@@H]2O[C@H](C)C[C@H](N(C)C)[C@H]2O)[C@](C)(O)C[C@@H](C)CN(C)[C@H](C)[C@@H](O)[C@]1(C)O", "cat": "FALSE"}
{"compound": "CC[C@H]1OC(=O)[C@H](C)[C@@H](O[C@H]2C[C@@](C)(OC)[C@@H](OCCCC(=O)NCCOCCNc3cc4c(=O)c(C(=O)O)cn(C5CC5)c4cc3Cl)[C@H](C)O2)[C@H](C)[C@@H](O[C@@H]2O[C@H](C)C[C@H](N(C)C)[C@H]2O)[C@](C)(O)C[C@@H](C)CN(C)[C@H](C)[C@@H](O)[C@]1(C)O", "cat": "FALSE"}
{"compound": "CC[C@H]1OC(=O)[C@H](C)[C@@H](O[C@H]2C[C@@](C)(OC)[C@@H](O)[C@H](C)O2)[C@H](C)[C@@H](O[C@@H]2O[C@H](C)C[C@H](N(C)C)[C@H]2O)[C@](C)(O)C[C@@H](C)CN(C)[C@H](C)[C@@H](O)[C@]1(C)O [AZITHROMYCIN]", "cat": "FALSE"}
{"compound": "CC[C@H]1OC(=O)[C@H](C)[C@@H](O[C@H]2C[C@@](C)(OC)[C@@H](OCCNCCNc3cc4c(=O)c(C(=O)O)cn(C5CC5)c4cc3Cl)[C@H](C)O2)[C@H](C)[C@@H](O[C@@H]2O[C@H](C)C[C@H](N(C)C)[C@H]2O)[C@](C)(O)C[C@@H](C)CN(C)[C@H](C)[C@H]2OC(=O)O[C@@]21C", "cat": "FALSE"}
{"compound": "CC[C@H]1OC(=O)[C@H](C)[C@@H](O[C@H]2C[C@@](C)(OC)[C@@H](OCCCC(=O)NCCNc3cc4c(cc3F)c(=O)c(C(=O)O)cn4C3CC3)[C@H](C)O2)[C@H](C)[C@@H](O[C@@H]2O[C@H](C)C[C@H](N(C)C)[C@H]2O)[C@](C)(O)C[C@@H](C)CN(C)[C@H](C)[C@@H](O)[C@]1(C)O", "cat": "TRUE"}
{"compound": "CC[C@H]1OC(=O)[C@H](C)[C@@H](O[C@H]2C[C@@](C)(OC)[C@@H](OCCN3CCN(c4ccc5c(c4)c(=O)c(C(=O)O)cn5CC)CC3)[C@H](C)O2)[C@H](C)[C@@H](O[C@@H]2O[C@H](C)C[C@H](N(C)C)[C@H]2O)[C@](C)(O)C[C@@H](C)CN(C)[C@H](C)[C@H]2OC(=O)O[C@@]21C", "cat": "FALSE"}
